target: T1, Antibody No. 465.1; assay: peptide blocking ELISA on plate-bound VISTA, peptide 20 ug/mL
T1 construct: also called Ab No. 465.1
observation-type: percent reduction in ELISA signal (%)
# value in %; strip the unit string

MRNLTLLDSGLYCCL (synthetic overlapping peptide from human VISTA) [Spiked Peptide 21 (MRNLTLLDSGLYCCL)]	22

API: the following record is the query input.
query: Note down percent reduction in ELISA signal recorded for LYCCLVVEIRHHHSE (synthetic overlapping peptide from human VISTA) [Spiked Peptide 23 (LYCCLVVEIRHHHSE)]
result: 36

Where these numbers come from: patent US20240132593A1
